System: MALME-3M melanoma
protocol_summary: NCI-60 one-dose screen, 48 h (100 = growth as untreated, 0 = no growth, -100 = all killed)
condition_description: 10 µM unless noted
The panel holds about 83,000 compounds, 20% with a hit somewhere; the sample as a whole holds those more often.
assay_readout: growth (%)

[[record]]
compound = "COc1cccc(/C=C/[N+](=O)[O-])c1"
output_unit = "%"
data_value = 89.8

[[record]]
compound = "CCCCCCC(=O)NC1=C(N2CC2)C(=O)C(NC(=O)CCCCCC)=C(N2CC2)C1=O"
output_unit = "%"
data_value = 7.93

[[record]]
compound = "Nc1cc2nc3ccccc3nc2cc1N"
output_unit = "%"
data_value = 122

[[record]]
compound = "Fc1ccc2c(c1)c(-c1nc(-c3c[nH]c4ncccc34)cs1)cn2CCN1CCOCC1"
output_unit = "%"
data_value = 74.2

[[record]]
compound = "COc1cc2c(cc1OCCCCn1c(-c3cccs3)nc3ccccc31)N=C[C@@H]1CCCN1C2=O"
output_unit = "%"
data_value = -77

[[record]]
compound = "COC(=O)[C@@H](C)C[C@H](Cc1ccccc1)NC(=O)c1nc([C@@H](C[C@H](C(C)C)N(C)C(=O)[C@@H](NC(=O)[C@H]2CCCCN2C)C(C)C)OC(C)=O)sc1C(C)C"
output_unit = "%"
data_value = 57.5

[[record]]
compound = "CC[C@H](C)[C@H](NC(=O)C12C3C4C1C1C2C3C41NC(C)=O)C(=O)N(C)[C@H](C[C@@H](OC(C)=O)c1nc(C(=O)N[C@@H](Cc2ccccc2)C[C@H](C)C(=O)OC)cs1)C(C)C (some centres undefined)"
output_unit = "%"
data_value = 58.6

[[record]]
compound = "O=C1NC(=O)C(=Cc2cn(CCCCCCn3c4ccccc4c(=O)c4ccccc43)c3ccccc23)C(=O)N1"
output_unit = "%"
data_value = 95.8

[[record]]
compound = "O=C(Nc1ccc(Cl)cc1)Nc1nccs1"
output_unit = "%"
data_value = 45.2

[[record]]
compound = "CCC1(C(C)C)C(=O)NC(=S)NC1=O"
output_unit = "%"
data_value = 111

[[record]]
compound = "Cn1cc(-c2csc(-c3cn(CCCCN4CCCCC4)c4ccc(F)cc34)n2)c2cccnc21"
output_unit = "%"
data_value = -68.4

[[record]]
compound = "COc1ccc(/C=C/c2cc(OC)c(OC)c(OC)c2)cc1NC(=O)/C=C/c1ccc(F)cc1"
output_unit = "%"
data_value = 42.7

[[record]]
compound = "CC(=O)Oc1ccccc1C(=O)NCCC[Se]C#N"
output_unit = "%"
data_value = -24.5

[[record]]
compound = "C[C@]12CCc3sc(NCCc4ccccc4)nc3C1=CC[C@@H]1[C@@H]2CC[C@]2(C)C(=O)CC[C@@H]12"
output_unit = "%"
data_value = 73.3

[[record]]
compound = "c1ccc(Nc2nc(-c3ccccc3)c[se]2)cc1"
output_unit = "%"
data_value = 78.6

[[record]]
compound = "O=C1Nc2ccccc2C2c3cccn3-c3ccccc3CN12 (centres undefined)"
output_unit = "%"
data_value = 52

[[record]]
compound = "C[C@]12CCc3sc(-c4cccc(F)c4)nc3C1=CC[C@@H]1[C@@H]2CC[C@]2(C)C(=O)CC[C@@H]12"
output_unit = "%"
data_value = 37.6

[[record]]
compound = "CC[C@H](C)[C@H](NC(=O)[C@H]1CCCCN1C)C(=O)N(C)[C@H](CC(=O)c1nc(C(=O)N[C@@H](Cc2ccccc2)C[C@H](C)C(=O)O)cs1)C(C)C"
output_unit = "%"
data_value = 67.1

[[record]]
compound = "CCCCCCCCC(CO)NCCc1ccccc1 (centres undefined)"
output_unit = "%"
data_value = 109

